Target: T1, recombinant extracellular domain of CD47 (UniProt Q08722 19-139, limits assumed)
T1 construct: extracellular domain; Analyte flowed over the captured antibodies in SPR; also called CD47-ECD
T1 sequence (Q08722 19-139 limits assumed): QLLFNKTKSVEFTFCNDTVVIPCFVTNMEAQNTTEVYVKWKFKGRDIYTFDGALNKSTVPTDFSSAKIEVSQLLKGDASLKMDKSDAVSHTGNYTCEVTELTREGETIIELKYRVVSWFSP
Test: SPR; antibody captured on anti-human Fc, CD47-ECD flowed 0-100 nM; 1:1 Langmuir
Procedure: The binding kinetics of anti-CD47 antibodies to the recombinant extracellular domain of CD47 were determined by using surface Plasmon resonance (SPR, MASS-1, Sierra Sensors; T200, Biacore, GE Healthcare Life Sciences). Anti-human Fc (P/N: BR-1008-39 (GE Healthcare Life Sciences)) was immobilized on a High Capacity Amine chip (P/N: SPR-AS-HCA, Sierra sensors) or CM5-S Chip (GE Healthcare Life Sciences). […]
assay_readout: koff (s⁻¹)

>  <binder>
Ab356/Ab1121 (antibody, V domains shown, FR and CDR L2 variant; Label printed HC first; the entry in numeric order (r442) is used; also called HC Ab356 / LC Ab1121) VH: QMQLVQSGAEVKKPGSSVKVSCKASGFNIKDYYLHWVRQAPGKGLEWMGWIDPDQGDTEYAQKFQGRVTITRDRSTSTAYMELRSLRAEDTAVYYCNAAYGSSSYPMDYWGQGTTVTVSS VL: NIQMTQSPSSLSASVGDRVTITCRASQDIHRYLSWFQQKPGKVPKHLIYRYIRFVDGVPSRFSGSGSGTEFTLTISSLQPEDFATYYCLQYDEFPYTFGGGTKVEIK

>  <quantitative_result>
0.00272

$$$$
>  <binder>
Ab356/Ab1120 (antibody, V domains shown, FR and CDR L2 variant; also called HC Ab356 / LC Ab1120) VH: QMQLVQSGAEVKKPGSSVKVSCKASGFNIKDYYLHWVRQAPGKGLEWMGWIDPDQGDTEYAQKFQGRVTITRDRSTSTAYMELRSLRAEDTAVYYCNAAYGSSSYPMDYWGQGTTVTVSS VL: NIQMTQSPSSLSASVGDRVTITCRASQDIHRYLSWFQQKPGKVPKHLIYRYVRFVDGVPSRFSGSGSGTEFTLTISSLQPEDFATYYCLQYDEFPYTFGGGTKVEIK

>  <quantitative_result>
0.00274

$$$$
>  <binder>
Ab480/Ab1122 (antibody, V domains shown, FR and CDR L2 variant; Label printed HC first; r445 used; also called HC Ab480 / LC Ab1122) VH: QMQLVQSGAEVKKPGSSVKVSCKASGFNIKDYYLHWVRQAPGKGLEWMGWIDPDQGDTEYAQKFQGRVTITRDRSTSTAYMELRSLRAEDTAVYYCNAAYGSSSYPMDYWGQGTLVTVSS VL: NIQMTQSPSSLSASVGDRVTITCRASQDIHRYLSWFQQKPGKVPKHLIYRYERFVDGVPSRFSGSGSGTEFTLTISSLQPEDFATYYCLQYDEFPYTFGGGTKVEIK

>  <quantitative_result>
0.0109

$$$$

The measurements presented in this section are drawn from patent US20190241654A1.
